observation_type: melting point

Fill in: melting point of Cc1ccccc1-c1cccc2c1CNC(=O)N2c1ccccc1 is ___ 236 to 238 °C

Fill in: melting point of Cn1c2ccc(C(=O)c3ccccc3)cc2c2cc(C(=O)c3ccccc3)ccc21 is ___ 222 °C

Fill in: melting point of O=C(O)CC(=O)Nc1c(-c2ccccc2)c(=O)[nH]c2cc(Cl)ccc12 is ___ 260 °C

Fill in: melting point of COC(=O)c1scc(Br)c1N is ___ 58 to 60 °C

Fill in: melting point of O=C(Nc1ccccc1S(=O)(=O)c1ccccc1)N[C@@H](Cc1ccc(NC(=O)c2c(Cl)cccc2Cl)cc1)C(=O)O is ___ 227 °C

Reference source: a melting point compilation (Tetko et al.; mined from patent text by program, amines drawn as free bases though some values may be those of a salt)
